Values were extracted from patent US20220323406A1.

Test system: ENR+CD organoids (ISC to Paneth cell differentiation)
procedureSummary: Primary screen: CCh-stimulated lysozyme secretion LYZ.S, 2.5-D 384-well ENR+CD organoid differentiation
Type: cell-based, mouse
recordedConditions: primary screen, dose 0.08 uM
Criterion: Dose.FC.LYZ.S strictly less than 0.03 log2 fold change. Met: rule met. Not met: rule not met.

C[C@]12CC[C@@H]3c4ccc(O)cc4C[C@@H](CCCCCCCCC[S+]([O-])CCCC(F)(F)C(F)(F)F)[C@H]3[C@@H]1CC[C@@H]2O (some centres unmarked) :: rule not met
Cc1ccc2c(=O)c3cccc(CC(=O)O)c3oc2c1C :: rule met
CCCCCCCCc1ccc(CCC(N)(CO)CO)cc1.Cl [Fingolimod (FTY720) HCl] :: rule met
O=c1ncccn1[C@@H]1O[C@H](CO)[C@@H](O)[C@H]1O :: rule not met
C[C@H](NC(=O)Cc1cc(F)cc(F)c1)C(=O)N[C@@H]1C(=O)N(C)c2ccccc2-c2ccccc21 :: rule not met
Cc1cc(Nc2cc(N3CCN(C)CC3)nc(Sc3ccc(NC(=O)C4CC4)cc3)n2)n[nH]1 :: rule met

Req: API: query returns whether the compound falls strictly under 0.03 log2 fold change in Dose.FC.LYZ.S. Query: COc1ccc2nc([S@@+]([O-])Cc3ncc(C)c(OC)c3C)[nH]c2c1 [Esomeprazole Sodium]
Resp: rule not met

Req: API: query returns whether the compound falls strictly under 0.03 log2 fold change in Dose.FC.LYZ.S. Query: CC(C)N(CC[C@H](c1ccccc1)c1cc(CO)ccc1O)C(C)C
Resp: rule not met
